- Tested System: HLA-B*44:03
- Protocol: IEDB peptide-MHC binding, purified MHC/competitive/radioactivity; filed as Kd, often an IC50 or EC50 that approximates it; bounds were set here for any values at or beyond the usual limits of such assays
- Study Conditions: source organism: Mammarenavirus lassaense
pKd: −log10 of the molar value.
Measure: pKd

Lookup: Item "FDAATTGSL" has what recorded pKd?
Found: ≤ 4.35

* * *

- Tested System: HLA-B*15:17
- Protocol: IEDB peptide-MHC binding, purified MHC/direct/fluorescence; filed as Kd, often an IC50 or EC50 that approximates it; bounds were set here for any values at or beyond the usual limits of such assays
- Study Conditions: source organism: Aracatuba virus
Measure: Kd

Lookup: Which Kd value is on record for "YKEPNSIIL" ?
Found: ≥ 20 µM

* * *

- Tested System: HLA-A*29:02
- Protocol: IEDB peptide-MHC binding, purified MHC/competitive/radioactivity; filed as Kd, often an IC50 or EC50 that approximates it; bounds were set here for any values at or beyond the usual limits of such assays
- Study Conditions: source organism: Lassa virus Josiah
Measure: pKd
Answers are plain numbers, as −log10 of the molar value.

Lookup: Given the entry "PEDPVEIALY" , what pKd was observed with HLA-A*29:02?
Found: 4.82

* * *

- Tested System: HLA-A*31:01
- Protocol: IEDB peptide-MHC binding, purified MHC/direct/fluorescence; filed as Kd, often an IC50 or EC50 that approximates it; bounds were set here for any values at or beyond the usual limits of such assays
- Study Conditions: source organism: Camelpox virus CMS
pKd: −log10 of the molar value.
Measure: pKd

Lookup: Suppose we examine the sequence "VSEKYTDMY" ; what pKd value has been reported?
Found: ≤ 4.70

* * *

- Tested System: HLA-B*15:42
- Protocol: IEDB peptide-MHC binding, purified MHC/competitive/fluorescence; filed as Kd, often an IC50 or EC50 that approximates it; bounds were set here for any values at or beyond the usual limits of such assays
- Study Conditions: source organism: Mycobacterium tuberculosis variant bovis BCG str. Pasteur 1173P2
Measure: Kd

Lookup: State the recorded Kd for this entry: "MTMITPPTF"
Found: ≥ 5 µM

* * *

- Tested System: HLA-B*58:01
- Protocol: IEDB peptide-MHC binding, purified MHC/direct/fluorescence; filed as Kd, often an IC50 or EC50 that approximates it; bounds were set here for any values at or beyond the usual limits of such assays
- Study Conditions: source organism: Buffalopox virus
pKd: −log10 of the molar value.
Measure: pKd

Lookup: For the record "RYPGVMYAF" , what value of pKd is listed for HLA-B*58:01?
Found: ≤ 4.70

* * *

- Tested System: HLA-B*18:01
- Protocol: IEDB peptide-MHC binding, purified MHC/competitive/fluorescence; filed as Kd, often an IC50 or EC50 that approximates it; bounds were set here for any values at or beyond the usual limits of such assays
- Study Conditions: source organism: Yersinia pestis Nepal516
pKd: −log10 of the molar value.
Measure: pKd

Lookup: Can you look up the measured pKd of "SMLCWLGMT" for me?
Found: ≤ 4.70

* * *

- Tested System: HLA-B*27:05
- Protocol: IEDB peptide-MHC binding, purified MHC/direct/fluorescence; filed as Kd, often an IC50 or EC50 that approximates it; bounds were set here for any values at or beyond the usual limits of such assays
- Study Conditions: source organism: Comamonas sediminis
Measure: Kd

Lookup: Need Kd, item "KSLGIDQIW"
Found: ≥ 20 µM

* * *

- Tested System: HLA-A*11:01
- Protocol: IEDB peptide-MHC binding, purified MHC/competitive/radioactivity; filed as Kd, often an IC50 or EC50 that approximates it; bounds were set here for any values at or beyond the usual limits of such assays
- Study Conditions: source organism: Mammarenavirus juninense
Measure: pKd
Numbers only, as −log10 of the molar value.

Lookup: Which pKd reading was recorded for the sequence "GKQYIHCFRK" ?
Found: 5.82

* * *

- Tested System: HLA-A*03:01
- Protocol: IEDB peptide-MHC binding, purified MHC/competitive/fluorescence; filed as Kd, often an IC50 or EC50 that approximates it; bounds were set here for any values at or beyond the usual limits of such assays
- Study Conditions: source organism: Pseudomonas aeruginosa UCBPP-PA14
pKd: −log10 of the molar value.
Measure: pKd

Lookup: Which pKd is reported with HLA-A*03:01 for this entry: "FLDDASNSA" ?
Found: ≤ 4.70

* * *

- Tested System: HLA-A*03:01
- Protocol: IEDB peptide-MHC binding, purified MHC/competitive/radioactivity; filed as Kd, often an IC50 or EC50 that approximates it; bounds were set here for any values at or beyond the usual limits of such assays
- Study Conditions: source organism: Mammarenavirus lassaense
Measure: Kd (nM)
One number for each entry, in nM.

Lookup: Look at this sequence and give its reported Kd. "SVANGVPVH"
Found: 2270

* * *

- Tested System: HLA-A*02:16
- Protocol: IEDB peptide-MHC binding, purified MHC/competitive/fluorescence; filed as Kd, often an IC50 or EC50 that approximates it; bounds were set here for any values at or beyond the usual limits of such assays
- Study Conditions: source organism: Burkholderia mallei SAVP1
pKd: −log10 of the molar value.
Measure: pKd

Lookup: Form field: pKd recorded for "RFNAIWFNH" with HLA-A*02:16 (enter value)
Found: ≤ 4.70

* * *

- Tested System: HLA-B*35:01
- Protocol: IEDB peptide-MHC binding, purified MHC/competitive/radioactivity; filed as Kd, often an IC50 or EC50 that approximates it; bounds were set here for any values at or beyond the usual limits of such assays
- Study Conditions: source organism: Human alphaherpesvirus 2
Measure: Kd
Provide the measurement as a number trailed by its unit.

Lookup: GET /values?readout=Kd&item= "GPHETITAL"
Found: 0.797 µM

* * *

- Tested System: HLA-B*46:01
- Protocol: IEDB peptide-MHC binding, purified MHC/competitive/fluorescence; filed as Kd, often an IC50 or EC50 that approximates it; bounds were set here for any values at or beyond the usual limits of such assays
- Study Conditions: source organism: Giardia lamblia ATCC 50803
Measure: Kd

Lookup: # lookup: Kd of "STTTCEAGV"
Found: ≥ 20 µM

* * *

- Tested System: HLA-B*46:01
- Protocol: IEDB peptide-MHC binding, purified MHC/direct/fluorescence; filed as Kd, often an IC50 or EC50 that approximates it; bounds were set here for any values at or beyond the usual limits of such assays
- Study Conditions: source organism: Giardia lamblia ATCC 50803
Measure: Kd

Lookup: Looking for the measured Kd of "VSSKKCTAL" , can you help?
Found: ≥ 20 µM

* * *

Exercise: for every item that follows, state its recorded pIC50.
- Tested System: HLA-A*02:01
- Protocol: IEDB peptide-MHC binding, purified MHC/competitive/fluorescence; bounds were set here for any values at or beyond the usual limits of such assays
- Study Conditions: source organism: Vaccinia virus
One number for each entry, as −log10 of the molar value.

CIDILRSLE 4.29
IFGNLSPET 4.33

Lookup: Give HLA-A*02:01 pIC50 for "RAADEPPLV"
Found: 5.55

* * *

- Tested System: HLA-A*01:01
- Protocol: IEDB peptide-MHC binding, purified MHC/direct/fluorescence; filed as Kd, often an IC50 or EC50 that approximates it; bounds were set here for any values at or beyond the usual limits of such assays
- Study Conditions: source organism: Campylobacter jejuni
Measure: Kd

Lookup: GET /values?readout=Kd&item= "SFGAGTLAK"
Found: ≥ 20 µM

* * *

- Tested System: HLA-A*02:01
- Protocol: IEDB peptide-MHC binding, purified MHC/competitive/radioactivity; filed as Kd, often an IC50 or EC50 that approximates it; bounds were set here for any values at or beyond the usual limits of such assays
- Study Conditions: source organism: Dengue virus 2 Thailand/NGS-C/1944
Measure: pKd
Answers are plain numbers, as −log10 of the molar value.

Lookup: Endpoint output: pKd of "LLVLCVTQV" . Value?
Found: 7.19

* * *

For each entry below, report its IC50 value.
- Tested System: HLA-A*11:01
- Protocol: IEDB peptide-MHC binding, purified MHC/competitive/fluorescence; bounds were set here for any values at or beyond the usual limits of such assays
- Study Conditions: source organism: Homo sapiens

YPDPVIKV ≥ 20 µM

Lookup: Need IC50, item "SLMASSPTSI"
Found: ≥ 20 µM

* * *

- Tested System: HLA-A*11:01
- Protocol: IEDB peptide-MHC binding, purified MHC/direct/fluorescence; filed as Kd, often an IC50 or EC50 that approximates it; bounds were set here for any values at or beyond the usual limits of such assays
- Study Conditions: source organism: Zaire ebolavirus
Measure: Kd

Lookup: May I ask what Kd has been recorded for "RLAKLTEAI" ?
Found: ≥ 20 µM

* * *

- Tested System: HLA-B*46:01
- Protocol: IEDB peptide-MHC binding, purified MHC/competitive/fluorescence; filed as Kd, often an IC50 or EC50 that approximates it; bounds were set here for any values at or beyond the usual limits of such assays
- Study Conditions: source organism: Orthohantavirus tulaense
pKd: −log10 of the molar value.
Measure: pKd

Lookup: Request the reported pKd associated with "SLMSRVVYK"
Found: ≤ 4.70
